Target protein (sequence): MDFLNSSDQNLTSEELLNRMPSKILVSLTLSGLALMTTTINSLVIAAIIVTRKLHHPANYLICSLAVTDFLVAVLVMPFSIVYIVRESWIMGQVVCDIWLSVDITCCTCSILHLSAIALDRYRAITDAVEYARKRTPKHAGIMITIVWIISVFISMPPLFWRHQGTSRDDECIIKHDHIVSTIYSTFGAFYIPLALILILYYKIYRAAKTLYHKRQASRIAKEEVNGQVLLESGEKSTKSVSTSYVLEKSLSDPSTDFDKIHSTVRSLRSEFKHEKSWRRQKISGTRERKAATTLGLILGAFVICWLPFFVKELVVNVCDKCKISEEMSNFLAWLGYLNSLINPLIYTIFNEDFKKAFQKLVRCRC
Below are Ki values for the protein given by its sequence collected from several publications.
Numbers only, in µM.

CC1CCN(CC[C@H]2CCCN2S(=O)(=O)c2cccc(O)c2)CC1    3.16

Report Ki for every entry below.
1. CSc1ccc2c(c1)C(N1CCN(C)CC1)Cc1ccccc1S2 (stereo unspecified)
2. Cn1ccc2cc3c(cc21)CCN3C(=O)Nc1cccnc1
3. CC(C)(C)[C@]1(O)CCN2C[C@H]3c4ccccc4CCc4cccc(c43)[C@@H]2C1

0.652
5.01
3.89
